- Assay text: Antioxidant activity assessed as ferric ion reducing activity using ferric-TPTZ by measuring concentration of compound with antioxidant capacity equivalent to ferrous sulfate at 0.5 mmol/L by FRAP assay
- Type: functional
Binary classification by Activity, with 400 µM as an inclusive lower bound for t; all other cases are f.

Answer whether Activity of S=c1oc(-c2ccc3c(c2)OCCO3)nn1CNc1cc(Cl)ccc1Cl is greater than or equal to 400 µM.
t

Answer whether Activity of S=c1oc(-c2ccc3c(c2)OCCO3)nn1CNc1ccc(Cl)cc1Cl is greater than or equal to 400 µM.
t

Answer whether Activity of Fc1ccc(NCn2nc(-c3ccc4c(c3)OCCO4)oc2=S)cc1 is greater than or equal to 400 µM.
f

Answer whether Activity of FC(F)(F)c1cc(NCn2nc(-c3ccc4c(c3)OCCO4)oc2=S)cc(C(F)(F)F)c1 is greater than or equal to 400 µM.
t

Answer whether Activity of FC(F)(F)c1ccccc1NCn1nc(-c2ccc3c(c2)OCCO3)oc1=S is greater than or equal to 400 µM.
t

Answer whether Activity of COc1ccc(NCn2nc(-c3ccc4c(c3)OCCO4)oc2=S)cc1 is greater than or equal to 400 µM.
t

Answer whether Activity of Cc1ccccc1NCn1nc(-c2ccc3c(c2)OCCO3)oc1=S is greater than or equal to 400 µM.
f

Answer whether Activity of Cc1cc(C(C)(C)C)c(O)c(C(C)(C)C)c1 [BUTYLATED HYDROXYTOLUENE] is greater than or equal to 400 µM.
t

Answer whether Activity of CCCCCCCCCCCCCCCCNCn1nc(-c2ccc3c(c2)OCCO3)oc1=S is greater than or equal to 400 µM.
t

Answer whether Activity of CCOc1ccccc1NCn1nc(-c2ccc3c(c2)OCCO3)oc1=S is greater than or equal to 400 µM.
t
